- STUDY SYSTEM: HA-tagged human ILT7 on CT-550 cells (human, UniProt P59901 24-499)
- Sequence (P59901 24-499): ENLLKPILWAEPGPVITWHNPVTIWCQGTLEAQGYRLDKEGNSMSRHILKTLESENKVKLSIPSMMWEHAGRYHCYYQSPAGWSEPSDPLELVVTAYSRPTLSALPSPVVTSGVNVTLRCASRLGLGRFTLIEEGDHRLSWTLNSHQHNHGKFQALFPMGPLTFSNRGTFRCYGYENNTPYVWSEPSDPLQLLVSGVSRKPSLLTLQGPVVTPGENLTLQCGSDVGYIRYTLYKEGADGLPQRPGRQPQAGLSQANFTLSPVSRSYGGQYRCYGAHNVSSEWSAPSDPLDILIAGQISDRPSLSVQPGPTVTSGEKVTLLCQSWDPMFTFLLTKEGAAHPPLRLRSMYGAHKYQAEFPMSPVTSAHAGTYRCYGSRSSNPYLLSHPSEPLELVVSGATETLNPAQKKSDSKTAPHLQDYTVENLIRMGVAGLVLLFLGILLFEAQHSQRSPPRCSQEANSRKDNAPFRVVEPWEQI
- TEST DETAILS: cell-based or functional assay
Hi there, I'd appreciate the recorded ADCC EC50 for every entry that follows.
Give just the number in nM; leave the unit off.

Give the measured ADCC EC50 for afucosylated ILT70083 (antibody, V domains shown, afucosylated: lacks the α-1,6 fucose moiety on the N-glycan at Asn-297 of the heavy chain) VH: EVQLLESGGGLVQPGGSLRLSCAASGFTFSSYAMSWVRQAPGKGLEWVSAISGSGGSTYYADSVKGWFTISRDNSKNTLYLQMNSLRAEDTAVYYCARRTYYYDSDGHSDVFDIWGRGTLVTVSS VL: QSVVTQPPSVSAAPGQKVTISCSGSASNIGSNFVSWYQQLPGRAPKLLIYDNDKRDLGIPDRFSASISSTSAALAITGLQTEDEADYYCGTWDTSLTVGVFGGGTKLTVL
0.0105

Give the measured ADCC EC50 for afucosylated ILT70080 (antibody, V domains shown, afucosylated: lacks the α-1,6 fucose moiety on the N-glycan at Asn-297 of the heavy chain, also called Afucosylated variant ITL70080) VH: QVQLVQSGAEVKAPGTSVKVSCKASGDSFRNYAVSWVRQAPGQGLEWMGAMMPSFGTREHSQQFNGRVTLSADESTSTAYLELSSLRYDDTAVYYCAGSRDYNAYHFWTGPPDFWGRGTLVTVSS VL: SYELTQPPSVSVAPGKTAKISCGGDSVGSTSVHWYQQKPGQAPVMVMFYNSDRPSGIPERFSGSISGNTATLTISRVEAGDEADYYCQVWDTSSDHPEFGGGTKLTVL
0.001
